System: 349418-098-R-PDC complex spheroid viability;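 also: spheroids exposed to agents for seven days before readout; 100% = DMSO vehicle control wells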
Test: Anticancer human tumor 349418-098-R-PDC patient-derived lung adenocarcinoma cell line growth inhibition
Conditions: second compound 3.16 µM; first compound 0.01 µM; active compounds read low
property measured: viability, T/C (%)
# output: bare number, implied unit %

# example entries with known answers
# compound, viability, T/C (%)
records = [
    ("COc1cc(Nc2ncc3c(n2)-c2ccc(Cl)cc2C(c2c(F)cccc2OC)=NC3)ccc1C(=O)O + NC1CCC(NC2CC2c2ccccc2)CC1", 58.9),
    ("CC1COCCN1c1cc(-c2ccnn2C)c2ccnc(-c3ccn[nH]3)c2n1 (stereo not given) + NC1CC1c1ccc(-c2cccc(O)c2)cc1", 16),
    ("Cn1ncnc1C1c2n[nH]c(=O)c3cc(F)cc(c23)NC1c1ccc(F)cc1 (stereo not given) + NC1CCC(NC2CC2c2ccccc2)CC1", 98.9),
    ("CC[C@@]1(O)C(=O)OCc2c1cc1n(c2=O)Cc2cc3c(CN(C)C)c(O)ccc3nc2-1 + NC1CC1c1ccc(-c2cccc(O)c2)cc1", 10.1),
]

Consider the additional compound presented here.
The compound listed as Nc1ncn(C2CC(O)C(CO)O2)c(=O)n1 (stereo not given) + NC1CC1c1ccc(-c2cccc(O)c2)cc1 shows viability, T/C equal to 108

The measurements presented in this section are drawn from PubChem BioAssay AID1918936.
